methodNotes: antimalarial activity against Dd2 strain (AID 2302)
settings: P. falciparum Dd2 in RBCs, LDH growth readout, 72 h; at 2 µM
Calls of active or inactive are those of the source.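 The calls were made as follows: active = growth inhibition above 50% at the single 2 µM test dose, taken to imply half-maximal potency below 2 µM; inactive = the rest.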
Log the outcome using a class from active, inactive

Worked examples follow.
{"compound": "COc1ccc2nccc([C@@H](O)CN3CCC(NC(=O)C(c4ccsc4)N4CCN(c5ccccc5OC)CC4)CC3)c2c1 (some centres undefined)", "cat": "active"}
{"compound": "CN(C)Cc1cccc(-c2ccc(NC(=O)c3ccc4c(=O)n(CCN5CCCCC5)cnc4c3)cc2)c1", "cat": "active"}
{"compound": "CS(=O)(=O)NCCCNCc1ccc(-c2ccc(-c3nc4ccc(C(F)(F)F)cc4[nH]3)cc2)cc1", "cat": "active"}
{"compound": "O=C(Nc1cccc(-c2nn3ccccc3c2-c2ccnc(Nc3ccccc3)n2)c1)c1c(F)cccc1F", "cat": "active"}
{"compound": "CCC(C)(C)NC(=O)C(c1cccc(OC)c1)N(C(=O)CNC(=O)c1cccs1)c1ccc2c(c1)OCCO2 (centres undefined)", "cat": "active"}
{"compound": "NC1=NC2(CCCCC2)N(OCC2CCCCC2)C(N)=N1", "cat": "inactive"}
{"compound": "COc1ccc2[nH]c(C(=O)Nc3ccc4nc(-c5ccccc5)[nH]c4c3)cc2c1", "cat": "inactive"}
{"compound": "COc1ccc2ncc(F)c(CCN3CCC(NCc4cc(F)c5c(c4)OCCO5)CC3)c2n1", "cat": "active"}

Now turn to the next compound.
# outcome recorded in this test, key = Cc1cc(CN2CCC(C(=O)Nc3ccc(-c4nc5ccccc5[nH]4)cc3)CC2)oc1C
inactive
